# Tested on: A498 renal
# METHOD_DESCRIPTION: NCI tumour cell line growth inhibition, 48 h; in the data active = GI50 below about 0.43 µM; inactive = the rest
Outcome (select one): active, inactive

Known results for compounds:
INSERT INTO assay_data (compound, study_system, class_name) VALUES
  ('OCCCCC#Cc1ccccc1C#Cc1ccc(O)cc1', 'A498 renal', 'inactive'),
  ('Cc1ccc(S(=O)(=O)Oc2ccc3c4c(c(=O)oc3c2)CCCCCC4)cc1', 'A498 renal', 'inactive'),
  ('CCCCNNC(=O)c1ccc(Br)cc1', 'A498 renal', 'active'),
  ('Oc1c(C(Nc2ccccc2Br)c2ccccc2)ccc2cccnc12 (configuration not stated)', 'A498 renal', 'inactive'),
  ('COc1cc(-c2nc3ccccc3s2)ccc1OCCCCOc1cc2c(cc1OC)C(=O)N1CCC[C@H]1C=N2', 'A498 renal', 'inactive'),
  ('COc1ccccc1/C=C1\COc2ccc(-c3ccccc3)cc2C1=O', 'A498 renal', 'inactive');

// switching to the query compound
Answer briefly: the call reported for COc1ccc(C(=O)Cn2c(C(=O)c3ccccc3)nc3ccccc32)cc1 in this assay.
inactive
